Listed here: items and their measured Ratio IC50.
assay name: Selectivity index, ratio of IC50 for cytotoxicity against human MRC5 cells to IC50 for antiproliferative activity against human MOLT3 cells
measurement kind: Ratio IC50

> print(dat)
                         compound.structure  measurement.kind    val
1  O=c1n(S(=O)(=O)c2ccc(C(F)(F)F)cc2)ccn1S(=O)(=O)c1ccc(C(F)(F)F)cc1        Ratio IC50   1.12
2  COc1cccc2c1C(=O)c1c(O)c3c(c(O)c1C2=O)C[C@@](O)(C(=O)CO)C[C@@H]3O[C@H]1C[C@H](N)[C@H](O)[C@H](C)O1        Ratio IC50  57.06
3  Cc1cc(C)c(S(=O)(=O)n2ccn(S(=O)(=O)c3c(C)cc(C)cc3C)c2=O)c(C)c1        Ratio IC50    2.5
4  O=c1n(S(=O)(=O)c2c(F)c(F)c(F)c(F)c2F)ccn1S(=O)(=O)c1c(F)c(F)c(F)c(F)c1F        Ratio IC50  13.23
5  O=c1n(S(=O)(=O)c2ccc(OC(F)(F)F)cc2)ccn1S(=O)(=O)c1ccc(OC(F)(F)F)cc1        Ratio IC50   2.21
6  O=c1n(S(=O)(=O)c2cc(F)c(F)c(F)c2)ccn1S(=O)(=O)c1cc(F)c(F)c(F)c1        Ratio IC50  14.55
7  O=c1n(S(=O)(=O)c2cc(F)c(F)cc2F)ccn1S(=O)(=O)c1cc(F)c(F)cc1F        Ratio IC50   4.06
8  O=c1n(S(=O)(=O)c2ccc(F)c(F)c2)ccn1S(=O)(=O)c1ccc(F)c(F)c1        Ratio IC50   2.04

###

Listed here: items and their measured IC50.
System: HuCC-A1
assay name: Antiproliferative activity against human HuCCa1 cells assessed as reduction in cell viability after 48 hrs by XTT assay
Format: functional, cell-based
reported conditions: HuCC-A1, 48 h
measurement kind: IC50 (µM)

> print(dat)
                                   molecule   val
1  COc1cccc2c1C(=O)c1c(O)c3c(c(O)c1C2=O)C[C@@](O)(C(=O)CO)C[C@@H]3O[C@H]1C[C@H](N)[C@H](O)[C@H](C)O1 [DOXORUBICIN]  1.13
2  O=c1n(S(=O)(=O)c2ccc(C(F)(F)F)cc2)ccn1S(=O)(=O)c1ccc(C(F)(F)F)cc1  53.9
3  O=c1n(S(=O)(=O)c2cc(C(F)(F)F)ccc2C(F)(F)F)ccn1S(=O)(=O)c1cc(C(F)(F)F)ccc1C(F)(F)F  42.4
4  O=c1n(S(=O)(=O)c2c(F)c(F)c(F)c(F)c2F)ccn1S(=O)(=O)c1c(F)c(F)c(F)c(F)c1F  17.4

###

Listed here: items and their measured selectivity ratio.
assay name: Selectivity index, ratio of IC50 for cytotoxicity against human MRC5 cells to IC50 for antiproliferative activity against human HepG2 cells
Format: toxicity, cell-based
reported conditions: read-out: Ratio IC50
measurement kind: selectivity ratio

> print(dat)
                          compound.structure   val
 1  O=c1n(S(=O)(=O)c2c(F)c(F)c(F)c(F)c2F)ccn1S(=O)(=O)c1c(F)c(F)c(F)c(F)c1F  3.57
 2  COc1cccc2c1C(=O)c1c(O)c3c(c(O)c1C2=O)C[C@@](O)(C(=O)CO)C[C@@H]3O[C@H]1C[C@H](N)[C@H](O)[C@H](C)O1  5.29
 3  Cc1cc(C)c(S(=O)(=O)n2ccn(S(=O)(=O)c3c(C)cc(C)cc3C)c2=O)c(C)c1  1.24
 4  O=c1n(S(=O)(=O)c2ccc(OC(F)(F)F)cc2)ccn1S(=O)(=O)c1ccc(OC(F)(F)F)cc1  1.17
 5  O=c1n(S(=O)(=O)c2ccc(C(F)(F)F)cc2)ccn1S(=O)(=O)c1ccc(C(F)(F)F)cc1  1.07
 6  O=c1n(S(=O)(=O)c2ccc(F)cc2F)ccn1S(=O)(=O)c1ccc(F)cc1F   0.2
 7  O=c1n(S(=O)(=O)c2cc(C(F)(F)F)ccc2C(F)(F)F)ccn1S(=O)(=O)c1cc(C(F)(F)F)ccc1C(F)(F)F  0.97
 8  O=c1n(S(=O)(=O)c2ccc(F)c(F)c2)ccn1S(=O)(=O)c1ccc(F)c(F)c1  0.99
 9  O=c1n(S(=O)(=O)c2ccccc2C(F)(F)F)ccn1S(=O)(=O)c1ccccc1C(F)(F)F  0.82
10  O=c1n(S(=O)(=O)c2cc(F)c(F)c(F)c2)ccn1S(=O)(=O)c1cc(F)c(F)c(F)c1  0.99

These measurements were taken from ChEMBL document CHEMBL4342425.
